- Tested on: MCF7 complex spheroid growth, % test/control
- ASSAY_COMMENT: Anticancer human tumor MCF7 cell line growth inhibition [Asc];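 note: spheroids exposed to compounds for 7 days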
- CONDITION_SUMMARY: curve of first compound; second compound 0.1 µM
pIC50: −log10 of the molar value.
QUANTITY_MEASURED: pIC50

The examples below pair each entry with its known result.
[[record]]
molecule = "NC(=O)C(=Cn1cnc(-c2cc(C(F)(F)F)cc(C(F)(F)F)c2)n1)c1cncnc1 + CNC(C)C(=O)NC1CN(S(=O)(=O)c2cccc(S(=O)(=O)N3CCC4CCC(C(=O)NC(c5ccccc5)c5ccccc5)N4C(=O)C(NC(=O)C(C)NC)C3)c2)CCC2CCC(C(=O)NC(c3ccccc3)c3ccccc3)N2C1=O"
recorded_measurement = "> 9.02"

[[record]]
molecule = "Cc1nc(N2CCC3(CC2)COC(C)C3N)c(CO)nc1Sc1ccnc(N)c1Cl (configuration not stated) + CNC(C)C(=O)NC1CN(S(=O)(=O)c2cccc(S(=O)(=O)N3CCC4CCC(C(=O)NC(c5ccccc5)c5ccccc5)N4C(=O)C(NC(=O)C(C)NC)C3)c2)CCC2CCC(C(=O)NC(c3ccccc3)c3ccccc3)N2C1=O"
recorded_measurement = "> 8.02"

[[record]]
molecule = "Cn1ncnc1[C@H]1c2n[nH]c(=O)c3cc(F)cc(c23)N[C@@H]1c1ccc(F)cc1 + CNC(C)C(=O)NC1CN(S(=O)(=O)c2cccc(S(=O)(=O)N3CCC4CCC(C(=O)NC(c5ccccc5)c5ccccc5)N4C(=O)C(NC(=O)C(C)NC)C3)c2)CCC2CCC(C(=O)NC(c3ccccc3)c3ccccc3)N2C1=O"
recorded_measurement = "> 9.50"

[[record]]
molecule = "C#Cc1c(F)ccc2cc(O)cc(-c3ncc4c(N5CC6CCC(C5)N6)nc(OCC56CCCN5CC(F)C6)nc4c3F)c12 (configuration not stated) + CNC(C)C(=O)NC1CN(S(=O)(=O)c2cccc(S(=O)(=O)N3CCC4CCC(C(=O)NC(c5ccccc5)c5ccccc5)N4C(=O)C(NC(=O)C(C)NC)C3)c2)CCC2CCC(C(=O)NC(c3ccccc3)c3ccccc3)N2C1=O"
recorded_measurement = "> 7.50"

[[record]]
molecule = "O=C(c1ccc(F)c(F)c1Nc1ccc(I)cc1F)N1CC(O)([C@@H]2CCCCN2)C1 + Cc1c(S(C)(=O)=O)c(-c2cc(F)cc(N3CCN(c4ccc(NS(=O)(=O)c5ccc(NC(CCN6CCC(C(=O)OCCCP(=O)(O)O)CC6)CSc6ccccc6)c(S(=O)(=O)C(F)(F)F)c5)cc4)CC3)c2)c(-c2ccc(Cl)cc2)n1C(C)C"
recorded_measurement = "< 6.00"

[[record]]
molecule = "O=C(c1ccc(F)c(F)c1Nc1ccc(I)cc1F)N1CC(O)([C@@H]2CCCCN2)C1 + CNC(C)C(=O)NC1CN(S(=O)(=O)c2cccc(S(=O)(=O)N3CCC4CCC(C(=O)NC(c5ccccc5)c5ccccc5)N4C(=O)C(NC(=O)C(C)NC)C3)c2)CCC2CCC(C(=O)NC(c3ccccc3)c3ccccc3)N2C1=O"
recorded_measurement = "> 8.50"


# ---- query molecule ----
Look at this molecule and give its reported pIC50. CCN1CCN(Cc2ccc(Nc3ncc(F)c(-c4cc(F)c5nc(C)n(C(C)C)c5c4)n3)nc2)CC1 + Cc1c(S(C)(=O)=O)c(-c2cc(F)cc(N3CCN(c4ccc(NS(=O)(=O)c5ccc(NC(CCN6CCC(C(=O)OCCCP(=O)(O)O)CC6)CSc6ccccc6)c(S(=O)(=O)C(F)(F)F)c5)cc4)CC3)c2)c(-c2ccc(Cl)cc2)n1C(C)C
< 6.00

###

- Tested on: MCF7 complex spheroid growth, % test/control
- ASSAY_COMMENT: Anticancer human tumor MCF7 cell line growth inhibition [Asc];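 note: spheroids exposed to compounds for 7 days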;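 for viability, T/C: 100% = DMSO vehicle control wells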
- CONDITION_SUMMARY: second compound 1 µM; first compound 1 µM; stronger effect = lower value
QUANTITY_MEASURED: viability, T/C (%)
Field format: number, assumed %, no unit text.

[[record]]
molecule = "C#Cc1c(F)ccc2cc(O)cc(-c3ncc4c(N5CC6CCC(C5)N6)nc(OCC56CCCN5CC(F)C6)nc4c3F)c12 (stereo not given) + Cc1c(S(C)(=O)=O)c(-c2cc(F)cc(N3CCN(c4ccc(NS(=O)(=O)c5ccc(NC(CCN6CCC(C(=O)OCCCP(=O)(O)O)CC6)CSc6ccccc6)c(S(=O)(=O)C(F)(F)F)c5)cc4)CC3)c2)c(-c2ccc(Cl)cc2)n1C(C)C"
quantity_measured = "viability, T/C"
recorded_measurement = 82.6

[[record]]
molecule = "O=C(c1cc(Cc2n[nH]c(=O)c3ccccc23)ccc1F)N1CCN(C(=O)C2CC2)CC1 + CNC(C)C(=O)NC1CN(S(=O)(=O)c2cccc(S(=O)(=O)N3CCC4CCC(C(=O)NC(c5ccccc5)c5ccccc5)N4C(=O)C(NC(=O)C(C)NC)C3)c2)CCC2CCC(C(=O)NC(c3ccccc3)c3ccccc3)N2C1=O"
quantity_measured = "viability, T/C"
recorded_measurement = 10.9

[[record]]
molecule = "C=CC(=O)N1CCN(c2nc(=O)n(-c3c(C)ccnc3C(C)C)c3nc(-c4c(O)cccc4F)c(F)cc23)C(C)C1 (stereo not given) + CNC(C)C(=O)NC1CN(S(=O)(=O)c2cccc(S(=O)(=O)N3CCC4CCC(C(=O)NC(c5ccccc5)c5ccccc5)N4C(=O)C(NC(=O)C(C)NC)C3)c2)CCC2CCC(C(=O)NC(c3ccccc3)c3ccccc3)N2C1=O"
quantity_measured = "viability, T/C"
recorded_measurement = 14.8

[[record]]
molecule = "C=C(F)C(=O)N1CCN(c2nc(OCC3CCCN3C)nc3c2CCN(c2cccc4cccc(Cl)c24)C3)CC1CC#N (stereo not given) + Cc1c(S(C)(=O)=O)c(-c2cc(F)cc(N3CCN(c4ccc(NS(=O)(=O)c5ccc(NC(CCN6CCC(C(=O)OCCCP(=O)(O)O)CC6)CSc6ccccc6)c(S(=O)(=O)C(F)(F)F)c5)cc4)CC3)c2)c(-c2ccc(Cl)cc2)n1C(C)C"
quantity_measured = "viability, T/C"
recorded_measurement = 81.5


Request the reported viability, T/C associated with C=CC(=O)N1CCN(c2nc(=O)n(-c3c(C)ccnc3C(C)C)c3nc(-c4c(O)cccc4F)c(F)cc23)C(C)C1 (stereo not given) + Cc1c(S(C)(=O)=O)c(-c2cc(F)cc(N3CCN(c4ccc(NS(=O)(=O)c5ccc(NC(CCN6CCC(C(=O)OCCCP(=O)(O)O)CC6)CSc6ccccc6)c(S(=O)(=O)C(F)(F)F)c5)cc4)CC3)c2)c(-c2ccc(Cl)cc2)n1C(C)C
97.4

###

- Test system: MCF7 complex spheroid growth, % test/control
- ASSAY_COMMENT: Anticancer human tumor MCF7 cell line growth inhibition [Asc];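 note: spheroids exposed to compounds for 7 days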;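 for viability, T/C: 100% = DMSO vehicle control wells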
- CONDITION_SUMMARY: second compound 0.3 µM; first compound 1 µM; stronger effect = lower value
- Source text: Multicellular complex tumor spheroid response to apoptosis pathway targeting inhibitors Alrizomadlin, Pelcitoclax, and Dasminapant in combination with a variety of drugs and investigational agents in selected tumor cell lines […] Compounds. […] If the clinical Cmax for an agent had not been determined, the highest concentration tested was 10 microM. […]
QUANTITY_MEASURED: viability, T/C (%)
Give the value in % but do not write % after it.

# annotated cases, reported viability, T/C shown
[[record]]
molecule = "C#Cc1c(F)ccc2cc(O)cc(-c3ncc4c(N5CC6CCC(C5)N6)nc(OCC56CCCN5CC(F)C6)nc4c3F)c12 (centres undefined) + CCN1C(C(=O)NC23CCC(C(=O)O)(CC2)CC3)C(c2cccc(Cl)c2F)C2(C(=O)Nc3cc(Cl)ccc32)C12CCCCC2"
quantity_measured = "viability, T/C"
recorded_measurement = 27.4

[[record]]
molecule = "O=C(c1ccc(F)c(F)c1Nc1ccc(I)cc1F)N1CC(O)([C@@H]2CCCCN2)C1 + CCN1C(C(=O)NC23CCC(C(=O)O)(CC2)CC3)C(c2cccc(Cl)c2F)C2(C(=O)Nc3cc(Cl)ccc32)C12CCCCC2"
quantity_measured = "viability, T/C"
recorded_measurement = 24.5

[[record]]
molecule = "C=C(F)C(=O)N1CCN(c2nc(OCC3CCCN3C)nc3c2CCN(c2cccc4cccc(Cl)c24)C3)CC1CC#N (centres undefined) + CCN1C(C(=O)NC23CCC(C(=O)O)(CC2)CC3)C(c2cccc(Cl)c2F)C2(C(=O)Nc3cc(Cl)ccc32)C12CCCCC2"
quantity_measured = "viability, T/C"
recorded_measurement = 34.8


Item under review: O=C(c1cc(Cc2n[nH]c(=O)c3ccccc23)ccc1F)N1CCN(C(=O)C2CC2)CC1 + CCN1C(C(=O)NC23CCC(C(=O)O)(CC2)CC3)C(c2cccc(Cl)c2F)C2(C(=O)Nc3cc(Cl)ccc32)C12CCCCC2 . Reported viability, T/C?
30.6
